Molecular target: Peptide 5: Biotin-…-[Tyr(PC)]-acid
Sequence (peptide, as listed by the source): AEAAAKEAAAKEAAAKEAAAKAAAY
Experiment: scFv ELISA
Listed next: entries and their corresponding OD450.

[
  {
    "Binder": "PcOxP_DB02_E12 (scFv, V domains shown, scFv in periplasmic extract) VH: EVQLLESGGGLVQPGGSLRLSCAASGFGFSDFYMEWVRQAPGKGLEWVAASRNKANDYTTEYADSVKGRFTISRDNSKNTLYLQMNSLRAEDTAVYYCARDYYGSSYWYFDVWGQGTLVTVSS VL: DIVMTQSPDSLAVSLGERATINCTASESLYSSKHKVHYLAWYQQKPGQPPKLLIYGASNRYIGVPDRFSGSGSGTDFTLTISSLQAEDVAVYYCAEFYSYPLTFGGGTKVEIK",
    "OD450 [OD450]": 0.58
  },
  {
    "Binder": "PcOxP_DB01_F12 (scFv, V domains shown, scFv in periplasmic extract) VH: EVQLLESGGGLVQPGGSLRLSCAASGFTHSDFYMEWVRQAPGKGLEWVAASRNKANGYTTEYADSVKGRFTISRDNSKNTLYLQMNSLRAEDTAVYYCARDYYGSSYWYFDSWGQGTLVTVSS VL: DIVMTQSPDSLAVSLGERATINCTASESLYSSKHKVHYLAWYQQKPGQPPKLLIYGASNRYVGVPDRFSGSGSGTDFTLTISSLQAEDVAVYYCAQFYSYPLTFGGGTKVEIK",
    "OD450 [OD450]": 1.43
  },
  {
    "Binder": "PcOxP_DB02_E09 (scFv, V domains shown, scFv in periplasmic extract) VH: EVQLLESGGGLVQPGGSLRLSCAASGFTFSDYYMEWVRQAPGKGLEWVAASRWKANDYTTEYADSVKGRFTISRDNSKNTLYLQMNSLRAEDTAVYYCARDYYGSSYWYFDVWGQGTLVTVSS VL: DIVMTQSPDSLAVSLGERATINCTASESLYSSKHKVHYLAWYQQKPGQPPKLLIYGASTRYSGVPDRFSGSGSGTDFTLTISSLQAEDVAVYYCAQFYTYPLTFGGGTKVEIK",
    "OD450 [OD450]": 0.74
  }
]
